The values you see were collected from ChEMBL document CHEMBL1130312.

Target sequence: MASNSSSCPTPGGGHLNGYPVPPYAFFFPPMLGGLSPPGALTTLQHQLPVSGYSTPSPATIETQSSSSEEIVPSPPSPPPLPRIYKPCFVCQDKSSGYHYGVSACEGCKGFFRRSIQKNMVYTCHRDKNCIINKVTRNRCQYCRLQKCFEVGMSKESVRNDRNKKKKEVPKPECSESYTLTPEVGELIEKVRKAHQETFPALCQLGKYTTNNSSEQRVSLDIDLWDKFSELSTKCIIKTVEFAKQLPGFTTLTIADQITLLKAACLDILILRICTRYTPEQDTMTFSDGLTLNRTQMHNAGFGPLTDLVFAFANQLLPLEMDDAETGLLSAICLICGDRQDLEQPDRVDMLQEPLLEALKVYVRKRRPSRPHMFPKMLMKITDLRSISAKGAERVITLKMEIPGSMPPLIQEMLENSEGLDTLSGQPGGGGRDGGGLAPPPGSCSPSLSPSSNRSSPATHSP
readout-label: Ki

# get_value(readout='Ki', item= CC(=C/C(=O)O)/C=C/C1CC1/C=C/C1=CC(C)(C)CCC1(C)C (stereo unspecified) )
> 4 µM
